Attribute: EC50
Biological target: Estrogen receptor (Homo sapiens)
Sequence (P03372 whole entry): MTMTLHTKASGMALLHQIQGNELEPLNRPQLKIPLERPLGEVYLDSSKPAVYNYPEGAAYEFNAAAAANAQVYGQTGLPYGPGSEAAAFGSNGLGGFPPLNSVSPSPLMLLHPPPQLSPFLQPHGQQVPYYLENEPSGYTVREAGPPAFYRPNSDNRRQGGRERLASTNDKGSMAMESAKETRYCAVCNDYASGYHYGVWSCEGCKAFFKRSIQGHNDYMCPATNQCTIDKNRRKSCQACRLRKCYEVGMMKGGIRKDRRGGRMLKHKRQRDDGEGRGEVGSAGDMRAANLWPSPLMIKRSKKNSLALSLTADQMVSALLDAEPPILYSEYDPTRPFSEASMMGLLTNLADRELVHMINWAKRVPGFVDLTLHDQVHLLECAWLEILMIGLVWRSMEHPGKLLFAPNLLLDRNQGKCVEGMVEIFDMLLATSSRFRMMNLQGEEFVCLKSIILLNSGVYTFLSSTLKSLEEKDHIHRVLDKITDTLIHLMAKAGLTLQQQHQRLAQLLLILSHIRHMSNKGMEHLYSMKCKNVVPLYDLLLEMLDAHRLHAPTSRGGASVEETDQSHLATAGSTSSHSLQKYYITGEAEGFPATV
Test: Partial agonist activity at ERalpha in human MCF7:WS8 cells after 18 hrs by luciferase reporter gene assay
Assay type: cell-based
Could you give me the number in nM? Just the number is fine.

[Q] Retrieve EC50 measured for C#Cc1ccc(C(=O)c2sc3cc(O)ccc3c2-c2ccc(F)cc2)cc1 and print it.
[A] 5.3

[Q] Determine its reported EC50: Oc1ccc(Oc2sc3cc(O)ccc3c2-c2ccc(F)cc2)cc1
[A] 0.8

[Q] Provide EC50 value for the following molecule: Oc1ccc2c(-c3ccc(F)cc3)c(Oc3ccc(Cl)cc3)sc2c1
[A] 76.1

* * *

Assay: Cytotoxicity against human MCF7:WS8 cells at 0.1 to 1 uM after 3 days by MTT assay
Format: cell-based
Settings: mcf7:ws8, 72 h
Observable: Activity

>>> df
                                   molecule  observable     result
0  O=C(c1sc2cc(O)ccc2c1-c1ccc(F)cc1)C1CCCCC1    Activity  Non-toxic
1  CN(C)c1ccc(C(=O)c2sc3cc(O)ccc3c2-c2ccc(F)cc2)cc1    Activity  Non-toxic
2  O=C(c1ccc(F)cc1)c1sc2cc(O)ccc2c1-c1ccc(F)cc1    Activity  Non-toxic

* * *

Assay: Antiproliferative activity against tamoxifen resistant human MCF7:5C cells assessed as inhibition of cell growth at 1 nM after 9 days by MTS assay
Type: functional
Conditions: 216 h
Observable: inhibition at 0.001 µM (%)
Please reply with the bare figure in % and do not write the unit itself.

>>> print(df.to_string())
                                   compound              observable  numeric_value
0  Oc1ccc(Oc2sc3cc(O)ccc3c2-c2ccc(F)cc2)cc1 [TTC-352]  inhibition at 0.001 µM           50.6

[Q] Annotate the compound O=C(c1ccc(C(F)(F)F)cc1)c1c(-c2ccc(F)cc2)sc2cc(O)ccc12 with its measured inhibition at 0.001 µM.
[A] 55.6

[Q] Fill in reported inhibition at 0.001 µM for this entry: C#Cc1ccc(C(=O)c2sc3cc(O)ccc3c2-c2ccc(F)cc2)cc1
[A] 31.4

[Q] Please look at this compound and report its inhibition at 0.001 µM: O=C(c1ccc(O)cc1)c1sc2cc(O)ccc2c1-c1ccc(F)cc1
[A] 95.4

* * *

Assay: Antiproliferative activity against tamoxifen resistant human MCF7:5C cells assessed as inhibition of cell growth at 1 nM after 9 days by MTS assay
Format: functional
Details: 216 h
Classify as follows. Reported inhibition at 0.001 µM greater than or equal to 10%: t. Reported inhibition at 0.001 µM below: f.

>>> print(df.to_string())
                                   molecule  answer_label
0  CN(C)c1ccc(C(=O)c2sc3cc(O)ccc3c2-c2ccc(F)cc2)cc1             f
1  O=C(c1sc2cc(O)ccc2c1-c1ccc(F)cc1)C1CCCCC1             t
2  Cc1ccc(C(=O)c2sc3cc(O)ccc3c2-c2ccc(F)cc2)cc1             t

[Q] Can Cc1ccc(C(=O)c2c(-c3ccc(O)cc3)sc3cc(O)ccc23)cc1 be said to have inhibition at 0.001 µM at or above 10%?
[A] t

[Q] Confirm if inhibition at 0.001 µM reported for the molecule N#Cc1ccc(C(=O)c2sc3cc(O)ccc3c2-c2ccc(F)cc2)cc1 is 10% or above.
[A] f
